SUBJECT_OF_TEST: OsWOX13 (Oryza sativa, UniProt Q5QMM3 1-267)
Sequence: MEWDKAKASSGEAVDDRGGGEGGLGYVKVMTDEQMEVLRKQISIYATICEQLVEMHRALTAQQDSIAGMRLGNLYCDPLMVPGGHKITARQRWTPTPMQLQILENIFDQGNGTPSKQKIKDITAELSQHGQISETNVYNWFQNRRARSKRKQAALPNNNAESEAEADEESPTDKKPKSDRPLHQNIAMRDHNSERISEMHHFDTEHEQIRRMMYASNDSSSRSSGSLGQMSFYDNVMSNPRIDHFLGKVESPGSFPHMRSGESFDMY
TEST_METHOD_NOTES: protein-binding microarray (RPBM); PBS, 2% BSA, 51.3 ng/ul salmon testes DNA, 50 uM zinc acetate, 200 nM TF, 25 C, 1 h; high values mean tight binding
CONDITIONS_USED: protein: recombinant; tags: N-terminal polyhistidine and DsRed monomer fusion (pET32a); label: CyDye5-dUTP incorporated in the synthesized complementary strand; 3' TTTTT single-stranded linker to array surface; dsDNA, one strand shown
In all, about 35,000 sequences were measured (“fluorescence intensity (a.u.)”: median about 10,000, highest 2% from about 52,000 on). What follows is part of a selection rich in the highest values, with near analogues and random picks from the rest.
ENDPOINT_NAME: binding signal

GTAATAATTGATTGGTTCAGAAATTAATCACTAATTGTCCCGGAGTCACCTAGTGCAG: 65000 fluorescence intensity (a.u.)
GATATATGATTGACTCAAGTCTTATTGATAAACTTGGTCCCGGAGTCACCTAGTGCAG: 57500 fluorescence intensity (a.u.)
ACGTAATTATAATTATTTTATTGTGAGTTGTTTTATTACTCGGAGTCACCTAGTGCAG: 26500 fluorescence intensity (a.u.)
TTATGTAATTATAATTTATTTTATTGTGACTTGATTTATCCGGAGTCACCTAGTGCAG: 34000 fluorescence intensity (a.u.)
AATAATTTGGTTAGTTATTGTTAAGGAGAAATTTGATTCCCGGAGTCACCTAGTGCAG: 12500 fluorescence intensity (a.u.)

---

Each item that follows carries a reported binding signal.
SUBJECT_OF_TEST: OsWOX13 (Oryza sativa, UniProt Q5QMM3 1-267)
Sequence: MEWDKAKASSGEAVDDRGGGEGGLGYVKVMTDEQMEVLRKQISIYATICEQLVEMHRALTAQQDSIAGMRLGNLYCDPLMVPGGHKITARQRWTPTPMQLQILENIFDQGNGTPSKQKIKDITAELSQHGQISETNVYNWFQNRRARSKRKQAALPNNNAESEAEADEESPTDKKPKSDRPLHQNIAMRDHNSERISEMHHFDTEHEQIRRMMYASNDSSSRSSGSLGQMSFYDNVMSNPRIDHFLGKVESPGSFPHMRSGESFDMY
TEST_METHOD_NOTES: protein-binding microarray (RPBM); PBS, 2% BSA, 51.3 ng/ul salmon testes DNA, 50 uM zinc acetate, 200 nM TF, 25 C, 1 h; high values mean tight binding
CONDITIONS_USED: protein: recombinant; tags: N-terminal polyhistidine and DsRed monomer fusion (pET32a); label: CyDye5-dUTP incorporated in the synthesized complementary strand; 3' TTTTT single-stranded linker to array surface; dsDNA, one strand shown
Whole data set: some 35,000 sequences, median “fluorescence intensity (a.u.)” near 10,000, cut for the highest 2% near 52,000. The list comes from a sample in which the highest values are over-represented; it also holds close analogues and randomly drawn sequences.
ENDPOINT_NAME: binding signal

TTAATGACTATTTAGTTGACATGTAAGAAACAGGGGATTTCGGAGTCACCTAGTGCAG: 3450 fluorescence intensity (a.u.)
TGTTAACTAATTAAATACCCATTATCAAACATTTAATTGACGGAGTCACCTAGTGCAG: 22900 fluorescence intensity (a.u.)
AATAAAATAATAATTATATAATTTTAGTAAGATAATTGAACGGAGTCACCTAGTGCAG: 19200 fluorescence intensity (a.u.)
TAATTAATTGATTAATGACTAAACTTGGCCATCAACCGCTCGGAGTCACCTAGTGCAG: 64800 fluorescence intensity (a.u.)
GCTCTGATTAATTTCAAACTTCGATTATGGACTAGTCAACCGGAGTCACCTAGTGCAG: 53400 fluorescence intensity (a.u.)
GATAATTTGAACCATAGATTTATCATTCAAAGGCTATAAACGGAGTCACCTAGTGCAG: 9720 fluorescence intensity (a.u.)
AGGACTACTATAATTGCAACTGAAATAAAACCTTGGCTTGCGGAGTCACCTAGTGCAG: 5450 fluorescence intensity (a.u.)
CATTAATTAAACTAACCCATCCATTGATTGATTATCAGTGCGGAGTCACCTAGTGCAG: 63500 fluorescence intensity (a.u.)
ACTGATAGAATTAGCTCTATGCATAATGCATGGCTGTCTCCGGAGTCACCTAGTGCAG: 34300 fluorescence intensity (a.u.)
CATGTTAATTTGGGACGAGAGTCGGACTCCTATTTCCTTTCGGAGTCACCTAGTGCAG: 7570 fluorescence intensity (a.u.)
TACTTTGATTTGCACACAATCAAATGTACAGTAGTACATGCGGAGTCACCTAGTGCAG: 28500 fluorescence intensity (a.u.)
CGCCCACTGAATTAATCAATCAGTAAAGCTGCCACCGTGCCGGAGTCACCTAGTGCAG: 39100 fluorescence intensity (a.u.)
CTGATTTGCAGTTCGTTCGTGCCTCTCACAATCAAACCCCCGGAGTCACCTAGTGCAG: 14300 fluorescence intensity (a.u.)
ATTGATTTTATTAAGTAACTGTGTGCTAATTAATTGTTCACGGAGTCACCTAGTGCAG: 28300 fluorescence intensity (a.u.)
GTAACGGGATGATTGAAGCTACAACGAGAATGGCAACGTCCGGAGTCACCTAGTGCAG: 22200 fluorescence intensity (a.u.)
ATGGACTAATTATGCTCAAAAGATTCGTCTCACGATTTACCGGAGTCACCTAGTGCAG: 16800 fluorescence intensity (a.u.)
AGATAATTAAGTATTTTACGTAAAATAAGATAGTATTAATCGGAGTCACCTAGTGCAG: 5240 fluorescence intensity (a.u.)
TCAAGCTGCTAATCAATTGATATCAACTATATTATGGAAACGGAGTCACCTAGTGCAG: 14600 fluorescence intensity (a.u.)
ATTTTACAGGGTGATTTGAACATACAGTAATTATGGCCAACGGAGTCACCTAGTGCAG: 6520 fluorescence intensity (a.u.)
